Endpoint: Ki. System: human 5-HT5A receptor (Homo sapiens). Items follow.

NC(N)=NC(=O)c1ccc2cccc(-c3cccc4c3OCO4)c2c1 [Example 92] | 0.3 to 3 nM
N#Cc1cnc(-c2cccc3ccc(C(=O)N=C(N)N)cc23)c(Cl)c1 [Example 196] | 3 to 30 nM
NC(N)=NC(=O)c1ccc2cccc(-c3cccc(F)c3Cl)c2c1 [Example 77] | 0.3 to 3 nM
NC(N)=NC(=O)c1ccc2cccc(-c3cc(Cl)ccc3F)c2c1 [Example 70] | 0.3 to 3 nM

With human 5-HT5A receptor (Homo sapiens) as the test system, NC(N)=NC(=O)c1ccc2cccc(-c3cccc(O)c3F)c2c1 [Example 106] showed Ki of 0.3 to 3 nM

====

Record type: Ki measurement. Applies to: human 5-HT5A receptor (Homo sapiens, UniProt P47898)

NC(N)=NC(=O)c1ccc2cccc(-c3c(F)cccc3F)c2c1 | 0.3 to 3 nM
COc1ncccc1-c1c(Cl)ccc2ccc(C(=O)N=C(N)N)cc12 | 0.3 to 3 nM
COc1ccc(-c2c(C)ccc3ccc(C(=O)N=C(N)N)cc23)cc1 | 0.3 to 3 nM

// `NC(N)=NC(=O)c1ccc2cccc(-c3ccnc(F)c3)c2c1` : Ki value = 3 to 30 nM

====

# testedTarget: human 5-HT5A receptor (Homo sapiens, UniProt P47898)
# Sequence (P47898 whole entry): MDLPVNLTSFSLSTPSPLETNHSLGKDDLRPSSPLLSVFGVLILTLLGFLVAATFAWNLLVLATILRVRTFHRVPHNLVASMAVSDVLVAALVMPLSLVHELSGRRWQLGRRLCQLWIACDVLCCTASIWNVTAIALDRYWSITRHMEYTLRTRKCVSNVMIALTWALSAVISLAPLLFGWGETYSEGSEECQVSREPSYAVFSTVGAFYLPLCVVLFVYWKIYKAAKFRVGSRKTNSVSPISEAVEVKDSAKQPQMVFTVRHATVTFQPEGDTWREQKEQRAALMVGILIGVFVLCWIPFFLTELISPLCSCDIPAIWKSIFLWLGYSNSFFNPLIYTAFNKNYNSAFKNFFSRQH
pKi: −log10 of the molar value.
measureName: pKi

N#Cc1ncccc1-c1cccc2ccc(C(=O)N=C(N)N)cc12 | 7.52 to 8.52

So the reported pKi for `Cc1nc(C2CC2)sc1-c1cccc2ccc(C(=O)N=C(N)N)cc12` , on human 5-HT5A receptor (Homo sapiens, UniProt P47898), turned out to be 7.52 to 8.52

Entry `NC(N)=NC(=O)c1ccc2cccc(-c3c(O)cccc3F)c2c1` under human 5-HT5A receptor (Homo sapiens, UniProt P47898) had pKi of 8.52 to 9.52

human 5-HT5A receptor (Homo sapiens, UniProt P47898) assay, molecule `NC(=O)c1cc(-c2cccc3ccc(C(=O)N=C(N)N)cc23)ccn1` , recorded pKi = 6.52 to 7.52

// molecule `COc1cccc(F)c1-c1cccc2ccc(C(=O)N=C(N)N)cc12` , assay human 5-HT5A receptor (Homo sapiens, UniProt P47898), pKi value: 8.52 to 9.52

Result for `NC(N)=NC(=O)c1ccc2cccc(-c3cccc4ccncc34)c2c1` , tested on human 5-HT5A receptor (Homo sapiens, UniProt P47898), pKi: 8.52 to 9.52

human 5-HT5A receptor (Homo sapiens, UniProt P47898) pKi of `NC(N)=NC(=O)c1ccc2cccc(-c3ccccc3-c3ccccc3)c2c1` is 6.52 to 7.52

The reported human 5-HT5A receptor (Homo sapiens, UniProt P47898) pKi of `Cc1cnc(-c2cccc3ccc(C(=O)N=C(N)N)cc23)c(Cl)c1` is 7.52 to 8.52

====

# testedTarget: UniProt:P47898
measureName: Ki

NC(N)=NC(=O)c1ccc2cccc(-c3ccc(F)cc3OC(F)F)c2c1 [Example 94] | 3 to 30 nM
NC(N)=NC(=O)c1ccc2cccc(-c3cccc(Cl)c3O)c2c1 [Example 178] | 0.3 to 3 nM
COc1ccc(-c2cccc3ccc(C(=O)N=C(N)N)cc23)c(C#N)c1 [Example 72] | 3 to 30 nM
Cc1cc(Cl)cnc1-c1cccc2ccc(C(=O)N=C(N)N)cc12 [Example 152] | 3 to 30 nM
NC(N)=NC(=O)c1ccc2cccc(-c3ccc(Cl)cc3Cl)c2c1 [Example 61] | 0.3 to 3 nM

Ki for UniProt:P47898 with input Cc1cc(-c2cccc3ccc(C(=O)N=C(N)N)cc23)ccn1 [Example 141] equals 3 to 30 nM

Let me check: NC(N)=NC(=O)c1ccc2cccc(-c3ncc(Cl)cc3F)c2c1 [Example 180] , system UniProt:P47898, measured Ki is 3 to 30 nM

Entry NC(N)=NC(=O)c1ccc2cccc(-c3cccc4nonc34)c2c1 [Example 179] , UniProt:P47898 data, Ki value: 3 to 30 nM

Noted Ki for NC(N)=NC(=O)c1ccc2cccc(-c3ccc(F)cn3)c2c1 [Example 134] , tested on UniProt:P47898: 3 to 30 nM

====

# testedTarget: human 5-HT5A receptor (Homo sapiens)
# Construct: expressed in transfected cells; membranes used
# assay: Test on a human 5-HT5A receptor binding inhibition ([3H]5-CT)
# settings: membrane from HEK293 cells for forced expression of human 5-HT5A receptor; Ki calculated from IC50 and Kd of [3H]5-CT (4.95 nM)
# Experimental: The ORF (open reading frame; protein coding region) of a human 5-HT5A receptor (Genbank AF498985) was cloned from a human hippocampus cDNA library, and then inserted into a pCR2.1 vector (Invitrogen), and Escherichia coli containing the plasmid was cultured in a large amount. Next, the full-length cDNA sequence of the human 5-HT5A receptor was analyzed, and recombined into a pcDNA3.1 vector (Invitrogen) as an expression vector and cultured in a large amount. […]
Measured Ki by item

Here is how some compounds turned out for Ki.
COc1cccc(C#N)c1-c1cccc2ccc(C(=O)N=C(N)N)cc12 [Example 30] | 3 to 30 nM
NC(N)=NC(=O)c1ccc2cccc(-c3cc(Cl)ncc3F)c2c1 [Example 197] | 0.3 to 3 nM

Value of measured Ki for the entry COc1cc(F)ccc1-c1cccc2ccc(C(=O)N=C(N)N)cc12 [Example 4] : 0.3 to 3 nM

The recorded Ki for entry COc1cccc(-c2cccc3ccc(C(=O)N=C(N)N)cc23)c1C#N [Example 99] equals 3 to 30 nM

Briefly, Ki measured for COc1ccccc1-c1c(Cl)cc(Cl)c2ccc(C(=O)N=C(N)N)cc12 [Example 136] : 3 to 30 nM

====

// pKi lookup, one value per entry
# testedTarget: human 5-HT5A receptor (Homo sapiens)
# Construct: expressed in transfected cells; membranes used
# assay: Test on a human 5-HT5A receptor binding inhibition ([3H]5-CT)
# settings: membrane from HEK293 cells for forced expression of human 5-HT5A receptor; Ki calculated from IC50 and Kd of [3H]5-CT (4.95 nM)
pKi: −log10 of the molar value.

NC(N)=NC(=O)c1ccc2cccc(-c3cccs3)c2c1 [Example 46] | 8.52 to 9.52

pKi in this record for NC(N)=NC(=O)c1ccc2cccc(-c3ccc(F)cc3F)c2c1 [Example 35] : 8.52 to 9.52

====

Hi! I'm sharing some Ki results obtained with human 5-HT5A receptor (Homo sapiens).

Sample answers from the record:
NC(N)=NC(=O)c1ccc2cccc(-c3cncs3)c2c1 | 3 to 30 nM
NC(N)=NC(=O)c1ccc2cccc(-c3cccc4cnccc34)c2c1 | 0.3 to 3 nM

Per the reported human 5-HT5A receptor (Homo sapiens) data, `COc1cc(-c2cccc3ccc(C(=O)N=C(N)N)cc23)c(Cl)cn1` has Ki of 3 to 30 nM

====

# testedTarget: human 5-HT5A receptor (Homo sapiens)
measureName: Ki

Cc1nc(C)c(-c2c(F)ccc3ccc(C(=O)N=C(N)N)cc23)s1 | 0.3 to 3 nM

Known value: human 5-HT5A receptor (Homo sapiens) Ki of the molecule `Cc1nc(-c2ccccc2)sc1-c1cccc2ccc(C(=O)N=C(N)N)cc12` equals 3 to 30 nM

Considering `NC(N)=NC(=O)c1ccc2cccc(-c3c(F)ccc(O)c3F)c2c1` , its Ki with human 5-HT5A receptor (Homo sapiens) was recorded as 0.3 to 3 nM

Noted Ki for `NC(N)=NC(=O)c1ccc2cccc(-c3c(F)ccc(O)c3Cl)c2c1` , tested on human 5-HT5A receptor (Homo sapiens): 0.3 to 3 nM

Entry `NC(N)=NC(=O)c1ccc2cccc(-c3ncc(Cl)cc3Cl)c2c1` , human 5-HT5A receptor (Homo sapiens) data, Ki value: 0.3 to 3 nM

# value of Ki, human 5-HT5A receptor (Homo sapiens), item `NC(N)=NC(=O)c1ccc2cccc(-c3cccnc3F)c2c1` = 0.3 to 3 nM

====

# testedTarget: human 5-HT5A receptor (Homo sapiens, UniProt P47898)
pKi: −log10 of the molar value.
measureName: pKi

N#Cc1ccc(-c2c(Cl)ccc3ccc(C(=O)N=C(N)N)cc23)cc1 [Example 125] | 8.52 to 9.52
COc1c(F)cccc1-c1cccc2ccc(C(=O)N=C(N)N)cc12 [Example 27] | 7.52 to 8.52
COc1cncc(-c2cccc3ccc(C(=O)N=C(N)N)cc23)c1 [Example 111] | 6.52 to 7.52
NC(N)=NC(=O)c1ccc2cccc(-c3ccc(F)nc3)c2c1 [Example 23] | 7.52 to 8.52

So for NC(N)=NC(=O)c1ccc2cccc(-c3cccc(Cl)c3F)c2c1 [Example 69] , the logged pKi turned out to be 8.52 to 9.52

Record summary for NC(N)=NC(=O)c1ccc2cccc(-c3cccc4ccccc34)c2c1 [Example 102] : reported pKi = 7.52 to 8.52

pKi for N#Cc1ccc(-c2cccc3ccc(C(=O)N=C(N)N)cc23)nc1 [Example 184] is 7.52 to 8.52
